B1: CPEB3 Ribozyme (parent)
chain: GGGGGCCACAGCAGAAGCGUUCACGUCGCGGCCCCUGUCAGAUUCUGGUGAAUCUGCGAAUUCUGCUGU

Variants of: B1
protocol notes: self-cleavage, relative activity (ratio to wild type); higher = more cleavage; co-transcriptional
quantity measured: self-cleavage

Example entries and their recorded answers appear below.
residue string	self-cleavage
GGGGGCCACAGCAGAAGCGCUCACGUCGCGGCCCCUGUCAGAUUCUGGUGAAUCUGCGAAUUCUACUGU [U20C G65A]	0.141
GGGGGCCACAGCAGGAGCGUUCACGUCGCGGCCCCUGUCAGAUUCCGGUGAAUCUGCGAAUUCUGCUGU [A15G U46C]	0.974
GGGGGCCACAGCAGAAGCGUUCACGUCGCGGCCCCUGUCAGAUUCUGGUGAAUCUGCGAAUUCCCCUGU [U64C G65C]	0.504
GGGGGCUACAGCAGAAGCGUUCACCUCGCGGCCCCUGUCAGAUUCUGGUGAAUCUGCGAAUUCUGCUGU [C7U G25C]	0.0703
GGGGGCCACAGCAGAAGCGUUCACGUCGCAGCCCCUGUCCGAUUCUGGUGAAUCUGCGAAUUCUGCUGU [G30A A40C]	0.276
GGGUGCCACAGCAGAAGCGUUCACGUCGCGGCCCCUGUCAGAAUCUGGUGAAUCUGCGAAUUCUGCUGU [G4U U43A]	0.455
GGGGGCCACAGCAGAAGCGUUCACGUCGGGGCCCCUGUCAGAUUCUCGUGAAUCUGCGAAUUCUGCUGU [C29G G47C]	0.558
GGGGGCCACAGCAGAAGGGUUCACGUCGCGGCCCCUGUCAGAUUCUGGUGAAUCUGCGAAUUCUCCUGU [C18G G65C]	0.141
GGGGGCCACAGCAGAAGCGUUCAGGUCGCGCCCCCUGUCAGAUUCUGGUGAAUCUGCGAAUUCUGCUGU [C24G G31C]	0.134
GGGGGCCACAGCAGAAGCCUUCACGUCGCGGCCCCUGUCAGAUUCUGGGGAAUCUGCGAAUUCUGCUGU [G19C U49G]	0.182

Q: Param item = GGGGGCCACAGGAGAAGCGUUCACGUCGCGGCCCCUGUCAGAUUAUGGUGAAUCUGCGAAUUCUGCUGU [C12G C45A] ; retrieve measured self-cleavage.
Ans: 0.728

Q: // returns reported self-cleavage for input GGGGGCCACAGCAGAAGCGUUCACGUCGCGGCCCCUGUCAGAUUCUGGUCAAUCUGCGAAAUCUGCUGU [G50C U61A]
Ans: 0.823

Q: Could you share which self-cleavage value was measured for GGGGGCCACAGCAGAAGCGUUCACGACGCGGACCCUGUCAGAUUCUGGUGAAUCUGCGAAUUCUGCUGU [U26A C32A] ?
Ans: 0.422

Q: For GGGGGCCACAGCAGAAGCGUUCACGUCGCGGCCCCUCUCAGAUUCUGGUGAAUCUGAGAAUUCUGCUGU [G37C C57A] , what is its reported self-cleavage?
Ans: 0.242

Q: What value of self-cleavage has been recorded for this entry: GGGGUCCACAGCAGAAGCGUUCACGUCGCGGCCCCUGUCAGAUUCUGGUGAAUCUGCGAAUUCUGCUCU [G5U G68C]
Ans: 0.716

Q: Any idea what self-cleavage was measured for GGGGGCCACAGCAGAAGCGUUCACGUCGCGGCCCUUGUCAGAUUCUGGUCAAUCUGCGAAUUCUGCUGU [C35U G50C] ?
Ans: 0.979

Q: Name the reported self-cleavage value associated with the variant GGGGGCCACAGCAGAAGCGUCCACGUCGCAGCCCCUGUCAGAUUCUGGUGAAUCUGCGAAUUCUGCUGU [U21C G30A]
Ans: 0.522
